system: HCV Replicon IB; test: HCV replicon assay in Huh-7 cells, genotype 1b (Rluc luciferase readout); assay type: cell-based, hepatitis C virus; conditions: Hepatitis C virus, Huh-7, 72 h, HCV1B replicon, Huh-7 cells, 3 days; read-out: EC50_HCV1B_
pEC50: −log10 of the molar value.
MEASUREMENT_LABEL: pEC50

[[record]]
compound = "Cc1cc(-c2nnc(N[C@H]3C[C@@](O)(CO)C3)o2)nc2c(C(C)(C)C)cc(C3CC3)cc12"
measurement_label = "pEC50"
measurement = 7.95

[[record]]
compound = "Cc1cc(-c2nnc(NCC3OCCS3)o2)nc2c(C(C)(C)C)cc(OCC(F)(F)F)cc12 (centres unmarked)"
measurement_label = "pEC50"
measurement = 8.94

[[record]]
compound = "Cc1cc(-c2nnc(N[C@H]3C[C@](O)(CO)C3)o2)nc2c(C(C)(C)C)cc(OCC(F)(F)F)cc12"
measurement_label = "pEC50"
measurement = 7.78

[[record]]
compound = "Cc1cc(-c2nnc(NC3CC4(COCO4)C3)o2)nc2c(C(C)(C)C)cc(C3CC3)cc12 (centres unmarked)"
measurement_label = "pEC50"
measurement = 7.80

[[record]]
compound = "Cc1cc(-c2nnc(NC3CCCC3)o2)nc2c(C(F)(F)F)cc(C3CC3)cc12"
measurement_label = "pEC50"
measurement = 8.76

[[record]]
compound = "CO[C@H]1CN[C@H](CNC(=O)c2cc(C)c3cc(C4CC4)cc(C(C)(C)C)c3n2)C1"
measurement_label = "pEC50"
measurement = 7.90

[[record]]
compound = "Cc1cc(-c2nnc(N[C@@H]3CCOC3)o2)nc2c(C(C)(C)C)cc(OCC(F)(F)F)cc12"
measurement_label = "pEC50"
measurement = 8.50

[[record]]
compound = "CC(C)(C)c1cc(C2CC2)cc2c(N)nc(C(=O)NCc3ncccn3)nc12"
measurement_label = "pEC50"
measurement = 8.92

